Target: BChE (Equus caballus, UniProt P81908)
Sequence (P81908 whole entry): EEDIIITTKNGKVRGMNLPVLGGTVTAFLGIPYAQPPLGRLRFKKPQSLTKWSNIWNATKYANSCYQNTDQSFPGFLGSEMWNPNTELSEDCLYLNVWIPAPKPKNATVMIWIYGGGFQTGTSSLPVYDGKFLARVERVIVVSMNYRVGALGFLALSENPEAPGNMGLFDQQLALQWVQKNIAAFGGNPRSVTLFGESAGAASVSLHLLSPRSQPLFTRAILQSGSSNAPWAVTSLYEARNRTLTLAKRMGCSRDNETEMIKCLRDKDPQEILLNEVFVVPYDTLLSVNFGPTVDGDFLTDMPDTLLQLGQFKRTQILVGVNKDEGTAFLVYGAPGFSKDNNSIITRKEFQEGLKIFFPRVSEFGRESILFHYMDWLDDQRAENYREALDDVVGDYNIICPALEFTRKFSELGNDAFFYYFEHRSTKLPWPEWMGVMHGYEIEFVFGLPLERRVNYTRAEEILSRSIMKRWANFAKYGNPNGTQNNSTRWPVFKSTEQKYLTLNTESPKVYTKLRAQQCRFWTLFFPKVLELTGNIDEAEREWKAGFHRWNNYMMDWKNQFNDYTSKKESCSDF
Assay: biochemical
Assay type: biochemical
Conditions: from Lineweaver-Burk graphs; mean ± SD, triplicate
Label key: Satisfied means Ki under 80 nM; Not satisfied means Ki of 80 nM or more.

Examples from the recorded data:
- smiles entry: "CCN(CC)C(=O)c1ccc2nc(-c3cccc4ccccc34)oc2c1"
  discrete label: "Not satisfied"
- smiles entry: "O=C(c1ccc2nc(-c3cccc4ccccc34)oc2c1)N1CCCCC1"
  discrete label: "Satisfied"
- smiles entry: "CCN(CC)C(=O)c1ccc2nc(-c3ccc(-c4ccccc4)cc3)oc2c1"
  discrete label: "Satisfied"

Field: below-cutoff. Rule: recorded Ki strictly less than 80 nM. Subject: CCCN(CCC)C(=O)c1ccc2nc(-c3ccco3)oc2c1
Satisfied

Field entry: O=C(c1ccc2nc(-c3ccc[nH]3)oc2c1)N1CCOCC1
Satisfied
